Provide the recorded Concentration in vitreous sample for the entries that follow.
assay: UPLC-MS/MS statin and metabolite concentrations in vitreous of vitrectomy patients on oral statins; format: in vivo, human; settings: patient 368; PDR; oral atorvastatin 40 mg
# number only, unit ng/mL dropped from output

q: Assign Concentration in vitreous sample to the following record: CC(C)c1c(C(=O)Nc2ccc(O)cc2)c(-c2ccccc2)c(-c2ccc(F)cc2)n1CC[C@@H](O)C[C@@H](O)CC(=O)O
a: 0.209

q: Assign Concentration in vitreous sample to the following record: CC(C)c1c(C(=O)Nc2ccccc2)c(-c2ccccc2)c(-c2ccc(F)cc2)n1CC[C@@H]1C[C@@H](O)CC(=O)O1
a: 0.089

q: Assign Concentration in vitreous sample to the following record: CC(C)c1c(C(=O)Nc2ccccc2O)c(-c2ccccc2)c(-c2ccc(F)cc2)n1CCC1CC(O)CC(=O)O1 (centres unmarked)
a: 0.063

q: Assign Concentration in vitreous sample to the following record: CC(C)c1c(C(=O)Nc2ccc(O)cc2)c(-c2ccccc2)c(-c2ccc(F)cc2)n1CCC1CC(O)CC(=O)O1 (centres unmarked)
a: 0.039

q: Assign Concentration in vitreous sample to the following record: CC(C)c1c(C(=O)Nc2ccccc2O)c(-c2ccccc2)c(-c2ccc(F)cc2)n1CCC(O)CC(O)CC(=O)O (centres unmarked)
a: 0.176

----------
assay: UPLC-MS/MS statin and metabolite concentrations in vitreous of vitrectomy patients on oral statins; format: in vivo, human; details: patient 430; PDR; oral atorvastatin 20 mg
Provide the recorded Concentration in vitreous sample for the entries that follow.
# number only, unit ng/mL dropped from output

q: Assign Concentration in vitreous sample to the following record: CC(C)c1c(C(=O)Nc2ccc(O)cc2)c(-c2ccccc2)c(-c2ccc(F)cc2)n1CCC1CC(O)CC(=O)O1 (centres unmarked) [4-OH Atv lactone, 4-OH atorvastatin lactone]
a: 0.017

q: Assign Concentration in vitreous sample to the following record: CC(C)c1c(C(=O)Nc2ccccc2O)c(-c2ccccc2)c(-c2ccc(F)cc2)n1CCC(O)CC(O)CC(=O)O (centres unmarked) [2-OH Atv, 2-OH atorvastatin]
a: 0.099

q: Assign Concentration in vitreous sample to the following record: CC(C)c1c(C(=O)Nc2ccc(O)cc2)c(-c2ccccc2)c(-c2ccc(F)cc2)n1CC[C@@H](O)C[C@@H](O)CC(=O)O [4-OH Atv, 4-OH atorvastatin]
a: 0.12

q: Assign Concentration in vitreous sample to the following record: CC(C)c1c(C(=O)Nc2ccccc2)c(-c2ccccc2)c(-c2ccc(F)cc2)n1CC[C@@H]1C[C@@H](O)CC(=O)O1 [Atv lactone, atorvastatin lactone]
a: 0.062

q: Assign Concentration in vitreous sample to the following record: CC(C)c1c(C(=O)Nc2ccccc2O)c(-c2ccccc2)c(-c2ccc(F)cc2)n1CCC1CC(O)CC(=O)O1 (centres unmarked) [2-OH Atv lactone, 2-OH atorvastatin lactone]
a: 0.032

----------
experiment: UPLC-MS/MS statin and metabolite concentrations in vitreous of vitrectomy patients on oral statins; format: in vivo, human; conditions: patient 429; RRD; oral atorvastatin 20 mg
Provide the recorded Concentration in vitreous sample for the entries that follow.
# number only, unit ng/mL dropped from output

q: Assign Concentration in vitreous sample to the following record: CC(C)c1c(C(=O)Nc2ccc(O)cc2)c(-c2ccccc2)c(-c2ccc(F)cc2)n1CC[C@@H](O)C[C@@H](O)CC(=O)O
a: 0.022

q: Assign Concentration in vitreous sample to the following record: CC(C)c1c(C(=O)Nc2ccccc2)c(-c2ccccc2)c(-c2ccc(F)cc2)n1CC[C@@H]1C[C@@H](O)CC(=O)O1
a: 0.016

q: Assign Concentration in vitreous sample to the following record: CC(C)c1c(C(=O)Nc2ccccc2O)c(-c2ccccc2)c(-c2ccc(F)cc2)n1CCC1CC(O)CC(=O)O1 (stereo not shown)
a: 0.023

q: Assign Concentration in vitreous sample to the following record: CC(C)c1c(C(=O)Nc2ccc(O)cc2)c(-c2ccccc2)c(-c2ccc(F)cc2)n1CCC1CC(O)CC(=O)O1 (stereo not shown)
a: 0.008

----------
Provide the recorded Concentration in vitreous sample for the entries that follow.
assay: UPLC-MS/MS statin and metabolite concentrations in vitreous of vitrectomy patients on oral statins; assay type: in vivo, human; conditions: patient 352; PDR, TDR; oral atorvastatin 20 mg
# number only, unit ng/mL dropped from output

q: Assign Concentration in vitreous sample to the following record: CC(C)c1c(C(=O)Nc2ccccc2)c(-c2ccccc2)c(-c2ccc(F)cc2)n1CC[C@@H]1C[C@@H](O)CC(=O)O1
a: 0.012

q: Assign Concentration in vitreous sample to the following record: CC(C)c1c(C(=O)Nc2ccccc2O)c(-c2ccccc2)c(-c2ccc(F)cc2)n1CCC(O)CC(O)CC(=O)O (stereo not shown)
a: 0.047

q: Assign Concentration in vitreous sample to the following record: CC(C)c1c(C(=O)Nc2ccccc2O)c(-c2ccccc2)c(-c2ccc(F)cc2)n1CCC1CC(O)CC(=O)O1 (stereo not shown)
a: 0.023

q: Assign Concentration in vitreous sample to the following record: CC(C)c1c(C(=O)Nc2ccc(O)cc2)c(-c2ccccc2)c(-c2ccc(F)cc2)n1CC[C@@H](O)C[C@@H](O)CC(=O)O
a: 0.022

----------
Assay: UPLC-MS/MS statin and metabolite concentrations in vitreous of vitrectomy patients on oral statins
Type: in vivo, human
Conditions: patient 355; PDR; oral atorvastatin 10 mg
Description: The study was conducted according to the tenets of the Declaration of Helsinki, and was approved by the Institutional Review Board and Ethical committee of Helsinki University Central Hospital. […] Supernatants (120 µl) were pipetted into analytical vials and the concentrations of the statins were measured with Ultra-high Pressure Liquid Chromatography—tandem Mass Spectrometry (UPLC-MS/MS) technique. […] A minimum of six calibration curve concentrations was used for quantitation of the compounds. […]
measurement-label: Concentration in vitreous sample (ng/mL)
# number only, unit ng/mL dropped from output

q: Assign Concentration in vitreous sample to the following record: CC(C)c1c(C(=O)Nc2ccc(O)cc2)c(-c2ccccc2)c(-c2ccc(F)cc2)n1CCC1CC(O)CC(=O)O1 (centres unmarked)
a: 0.012

q: Assign Concentration in vitreous sample to the following record: CC(C)c1c(C(=O)Nc2ccccc2O)c(-c2ccccc2)c(-c2ccc(F)cc2)n1CCC1CC(O)CC(=O)O1 (centres unmarked)
a: 0.029

q: Assign Concentration in vitreous sample to the following record: CC(C)c1c(C(=O)Nc2ccccc2)c(-c2ccccc2)c(-c2ccc(F)cc2)n1CC[C@@H]1C[C@@H](O)CC(=O)O1
a: 0.035

q: Assign Concentration in vitreous sample to the following record: CC(C)c1c(C(=O)Nc2ccccc2O)c(-c2ccccc2)c(-c2ccc(F)cc2)n1CCC(O)CC(O)CC(=O)O (centres unmarked)
a: 0.071

q: Assign Concentration in vitreous sample to the following record: CC(C)c1c(C(=O)Nc2ccc(O)cc2)c(-c2ccccc2)c(-c2ccc(F)cc2)n1CC[C@@H](O)C[C@@H](O)CC(=O)O
a: 0.057

----------
experiment: MTT cell viability assay; assay type: cell-based, human; details: human, ARPE-19 cells; dissolved in DMSO; read-out: Cell viability (MTT) compared to DMSO control
measurement-label: viability (%)
# number only, unit % dropped from output

q: Assign viability to the following record: CC(C)c1nc(N(C)S(C)(=O)=O)nc(-c2ccc(F)cc2)c1/C=C/[C@@H](O)C[C@@H](O)CC(=O)O
a: 88
